# TESTED_SYSTEM: Mineralocorticoid receptor (Homo sapiens)
# ASSAY: Antagonist activity at Gal4-fused human MR LBD (672 to 984 residues) expressed in HEK293T cells assessed as inhibition of aldosterone-induced transactivation activity after 24 hrs by luciferase reporter gene assay
# Assay type: cell-based, HEK-293T
OBSERVABLE: IC50

So, "CC(=O)Oc1ccc(CCc2ccc3c(c2)NC(=O)CO3)c(C)c1" ? Its IC50 was < 2 nM

----------
Assignment: determine reported pIC50 for the given compounds.
# TESTED_SYSTEM: Mineralocorticoid receptor (Homo sapiens)
# Sequence (P08235 whole entry): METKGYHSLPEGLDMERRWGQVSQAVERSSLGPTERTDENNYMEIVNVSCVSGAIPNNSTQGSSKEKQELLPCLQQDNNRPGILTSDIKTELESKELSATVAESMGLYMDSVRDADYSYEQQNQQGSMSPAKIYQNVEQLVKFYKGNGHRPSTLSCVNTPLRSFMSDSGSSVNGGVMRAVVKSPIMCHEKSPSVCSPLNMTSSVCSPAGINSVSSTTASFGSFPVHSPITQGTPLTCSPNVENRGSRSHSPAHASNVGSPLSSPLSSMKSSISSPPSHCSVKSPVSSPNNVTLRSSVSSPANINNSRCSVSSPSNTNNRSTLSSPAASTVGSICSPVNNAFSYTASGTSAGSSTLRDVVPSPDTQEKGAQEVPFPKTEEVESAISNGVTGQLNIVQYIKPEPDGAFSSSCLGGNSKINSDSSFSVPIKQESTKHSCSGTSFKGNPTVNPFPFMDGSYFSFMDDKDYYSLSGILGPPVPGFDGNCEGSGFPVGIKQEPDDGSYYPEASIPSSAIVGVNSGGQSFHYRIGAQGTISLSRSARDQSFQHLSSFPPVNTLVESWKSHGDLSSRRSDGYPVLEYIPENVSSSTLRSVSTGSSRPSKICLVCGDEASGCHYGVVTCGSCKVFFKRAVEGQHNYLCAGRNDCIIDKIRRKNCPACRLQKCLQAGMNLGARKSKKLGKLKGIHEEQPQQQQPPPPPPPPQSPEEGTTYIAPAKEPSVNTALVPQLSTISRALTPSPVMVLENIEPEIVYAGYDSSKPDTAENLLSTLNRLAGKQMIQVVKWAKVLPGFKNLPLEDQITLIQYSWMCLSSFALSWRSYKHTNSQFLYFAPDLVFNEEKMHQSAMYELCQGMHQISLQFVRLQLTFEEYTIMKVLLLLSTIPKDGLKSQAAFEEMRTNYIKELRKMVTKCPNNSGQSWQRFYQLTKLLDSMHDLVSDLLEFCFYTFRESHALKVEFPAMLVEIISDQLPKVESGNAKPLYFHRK
# ASSAY: Antagonist activity at Gal4-fused human MR LBD (734 to 985 residues) expressed in CHO-K1 cells after 5 to 6 hrs by luciferase reporter gene assay
# Format: cell-based
Worth noting: pIC50 values are minus log10 of concentrations stated in mol/L.

So, "COC(=O)c1c(C)nc(C)c(C(=O)CC2CCC2)c1-c1cccc2c(=O)cc(C)oc12" ? Its pIC50 was 7.74

So, "CC(=O)C1=C(C)NC(C)=C(C(=O)OC2CCC2)[C@@H]1c1cccc2c(=O)cc(C)oc12" ? Its pIC50 was 8.15

So, CCc1cnc2cccc(C3C(C#N)=C(C)NC(C)=C3C(=O)OC(C)C)c2c1 (centres undefined) ? Its pIC50 was 6.51

So, CC1=C(C#N)C(c2cccc3c(=O)cc(C)oc23)C(C(=O)OC(C)C)=C(C)N1 (centres undefined) ? Its pIC50 was 6.80

So, "CCOc1ncc(C)c2c1[C@H](c1ccc(C#N)cc1OC)C(C#N)=C(C)N2" ? Its pIC50 was 7.59

So, CC1=C(C#N)C(c2cccc3c2-c2ccccc2C3=O)C(C(=O)OC(C)C)=C(C)N1 (centres undefined) ? Its pIC50 was 7.64

So, "CCOc1nccc2c1[C@H](c1ccc(C#N)cc1OC)C(C#N)=C(C)N2" ? Its pIC50 was 7.33

So, CCOc1nccc2c1C(c1ccc(C#N)cc1OC)C(C#N)=C(C)N2 (centres undefined) ? Its pIC50 was 7.00
